- ASSAYED TARGET: T1, hIL-6R on hIL-6-responsive human cells (XG-1 myeloma line, HepG2 hepatoma line) (human, UniProt P08887 20-468)
- T1 sequence (looked up): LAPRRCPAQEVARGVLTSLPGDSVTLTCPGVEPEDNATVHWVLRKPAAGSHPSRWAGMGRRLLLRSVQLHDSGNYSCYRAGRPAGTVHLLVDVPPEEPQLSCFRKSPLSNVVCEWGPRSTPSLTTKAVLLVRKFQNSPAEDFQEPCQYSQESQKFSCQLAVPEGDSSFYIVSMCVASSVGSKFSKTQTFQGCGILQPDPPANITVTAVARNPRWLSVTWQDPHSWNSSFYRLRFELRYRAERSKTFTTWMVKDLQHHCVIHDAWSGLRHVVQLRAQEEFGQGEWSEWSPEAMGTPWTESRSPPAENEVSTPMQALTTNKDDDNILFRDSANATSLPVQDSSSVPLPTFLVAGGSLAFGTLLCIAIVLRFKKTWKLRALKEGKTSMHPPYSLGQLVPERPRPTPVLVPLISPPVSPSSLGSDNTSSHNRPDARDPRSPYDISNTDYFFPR
- ASSAY OVERVIEW: cell-based or functional assay
# HepG2/STAT3 luciferase assay IC50 annotations
Please state the figure in nM; there is no need to write the unit.

BINDER	HepG2/STAT3 luciferase assay IC50 [nM]
VQ8F11-21 hIgG1 (antibody, V domains shown) VH: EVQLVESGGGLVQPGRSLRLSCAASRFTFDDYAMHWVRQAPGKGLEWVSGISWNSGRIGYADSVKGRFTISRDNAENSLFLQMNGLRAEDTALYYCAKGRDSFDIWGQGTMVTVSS VL: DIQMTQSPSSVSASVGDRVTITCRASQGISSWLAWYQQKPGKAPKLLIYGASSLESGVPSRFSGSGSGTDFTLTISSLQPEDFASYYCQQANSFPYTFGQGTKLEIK	0.15

# context switch: different binder, same HepG2/STAT3 luciferase assay IC50
The reported value for VQ1G4-21 hIgG1 (antibody, V domains shown, Human IgG1 constant region) VH: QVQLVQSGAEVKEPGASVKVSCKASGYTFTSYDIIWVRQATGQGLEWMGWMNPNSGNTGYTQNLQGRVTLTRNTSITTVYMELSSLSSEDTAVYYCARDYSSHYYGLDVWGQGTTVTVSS VL: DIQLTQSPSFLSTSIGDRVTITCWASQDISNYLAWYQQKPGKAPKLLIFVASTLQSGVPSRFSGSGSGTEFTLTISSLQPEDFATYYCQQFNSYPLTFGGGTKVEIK in terms of HepG2/STAT3 luciferase assay IC50 is 0.767
